For each entry below, report its GI50 value.
System: KM12 colon
MEASUREMENT DESCRIPTION: NCI tumour cell line growth inhibition, 48 h

GI50 lookup needed for "CCOC(=O)c1c(NC(=O)c2ccc(C(C)C)cc2)sc2c(CN(C)C)c(O)ccc12" , thanks.
1.83 µM

Which GI50 is reported for this compound? "O=C(Nc1ccc(OC(F)(F)F)cc1)c1sccc1NCc1ccnc2ccccc12"
3.85 µM

***
# get_value(readout='GI50', item= "Cc1cc(N(CCNc2ccnc3cc(Cl)ccc23)Cc2ccc3c(c2)OCO3)nc(N2CCN(C)CC2)n1" )
4.42 µM

====

Test system: SK-OV-3 ovarian
MEASUREMENT DESCRIPTION: NCI tumour cell line growth inhibition, 48 h
OBSERVATION TYPE: TGI

Consider the reported TGI for these molecules:
Data request, read-out TGI, for CC(CO)[C@H]1OC(=O)C=C2[C@@]13O[C@@H]3[C@H]1OC(=O)[C@@]3(C)[C@H]4O[C@H]4C[C@@]2(C)[C@@H]13 (some centres undefined)
> 57 µM

Fill blank: measured TGI of the molecule C#CCOCC12C=CC(O1)C1COC(=O)C12 (centres undefined) is ____.
> 100 µM

Can you look up the measured TGI of "CC(=O)c1cccc(N(/C=C/C(=O)C(F)(F)F)CC(=O)c2ccc(Cl)cc2)c1" for me?
> 100 µM

// switching to the query molecule
Param item = C/C(=N/N(C=O)C[n+]1ccccc1)C(CN(CC(C)C)CC(C)C)C(=O)Nc1ccc(C)cc1C (centres undefined) ; retrieve measured TGI.
> 100 µM
